# SYSTEM UNDER TEST: IRAK4 (Homo sapiens)
# Sequence (Q9NWZ3 whole entry): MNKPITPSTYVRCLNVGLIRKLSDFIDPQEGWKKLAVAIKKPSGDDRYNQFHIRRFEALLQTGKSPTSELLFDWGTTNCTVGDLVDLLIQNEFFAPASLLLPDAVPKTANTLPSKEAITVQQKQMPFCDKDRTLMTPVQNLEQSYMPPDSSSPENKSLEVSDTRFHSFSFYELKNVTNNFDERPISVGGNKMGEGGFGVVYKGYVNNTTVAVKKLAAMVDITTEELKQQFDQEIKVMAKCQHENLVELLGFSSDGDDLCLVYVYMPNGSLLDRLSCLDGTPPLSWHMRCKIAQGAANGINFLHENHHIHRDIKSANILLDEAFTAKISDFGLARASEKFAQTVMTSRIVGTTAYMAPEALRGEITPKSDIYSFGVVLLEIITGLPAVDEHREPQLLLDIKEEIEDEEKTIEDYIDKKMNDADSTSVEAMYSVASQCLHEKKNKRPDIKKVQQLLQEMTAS
# ASSAY: IRAK4 Inhibition Assay
# Assay type: biochemical
# MEASUREMENT CONTEXT: ATP 500 μM; FL-IPTSPITTTYFFFKKK peptide […]; IRAK4 0.6 nM; 60 min room temperature; Caliper LABCHIP 3000
ENDPOINT: IC50 (nM)

Known IC50 results, listed for orientation:
COMPOUND | IC50, nM
NC(=O)c1cc2ccnc(OC[C@@H]3CNC(=O)N3)c2n2ccnc12 | 1820
CC[C@@H]1CC(=O)N[C@@H]1COc1cccc2cc(C(N)=O)c3nc(C)cn3c12 | 3.4
CC[C@@H]1OCC(=O)N[C@@H]1COc1nccc2cc(C(N)=O)c3nccn3c12 | 80.4
CC[C@@H]1OC(=O)N[C@H]1COc1nccc2cc(C(N)=O)c3nccn3c12 | 176

a = CC[C@H]1OC(=O)N[C@H]1COc1nccc2cc(C(N)=O)c3nccn3c12
b = CC[C@@H]1CC(=O)N[C@@H]1COc1cccc2cc(C(N)=O)n3nccc3c12
c = CC[C@@H]1CC(=O)N[C@@H]1COC1=CC(F)=CC2C=C(C(N)=O)c3nccn3C12 (some centres unmarked)
d = CC[C@@H]1[C@H](F)C(=O)N[C@@H]1COc1nccc2cc(C(N)=O)n3nccc3c12
Thanks in advance: please rank these 4 entries by IC50, highest to lowest. // list labels; follow requested order
a, c, b, d
(a: 262 nM, c: 9.7 nM, b: 2.6 nM, d: 0.7 nM)
